System: T-47D cells
Assay: Inhibition of cell proliferation in T-47D cells (CCK-8, 6 days)
Format: cell-based
Test settings: 6 days of treatment, Table 3
pIC50 for assorted compounds
Reminder that pIC50 means the negative base-10 logarithm of the concentration expressed in mol/L.

Request: Return pIC50 (reported value) for this compound: C[C@@H]1Cc2c(ccc3[nH]ncc23)[C@@H](c2c(F)cc(N3CCC4(CCN(C(=O)CN5CCC6(CC5)COc5c6ccc6c5CN(C5CCC(=O)NC5=O)C6=O)C4)CC3)cc2F)N1CC(F)F (stereo partly drawn) [C14]
Result: 9.02

Request: Return pIC50 (reported value) for this compound: O=C1CCC(N2Cc3c(ccc4c3OCC43CCN(CC(=O)N4CC5(CCN(c6ccc([C@@H]7c8ccc(O)cc8CC[C@@H]7c7ccccc7)cc6)CC5)C4)CC3)C2=O)C(=O)N1 (stereo partly drawn) [K5]
Result: 8.79

Request: Return pIC50 (reported value) for this compound: O=C1CCC(N2Cc3c(ccc4c3OCC43CCN(CC(=O)N4CC[C@]5(CCN(c6ccc([C@@H]7c8ccc(O)cc8CC[C@@H]7c7ccccc7)cc6)C5)C4)CC3)C2=O)C(=O)N1 (stereo partly drawn) [H23]
Result: 8.80

====

Degradation rate (%) of ERα in T-47D cells for assorted compounds
Assayed system: ERα (Homo sapiens)
Sequence (P03372 1-595): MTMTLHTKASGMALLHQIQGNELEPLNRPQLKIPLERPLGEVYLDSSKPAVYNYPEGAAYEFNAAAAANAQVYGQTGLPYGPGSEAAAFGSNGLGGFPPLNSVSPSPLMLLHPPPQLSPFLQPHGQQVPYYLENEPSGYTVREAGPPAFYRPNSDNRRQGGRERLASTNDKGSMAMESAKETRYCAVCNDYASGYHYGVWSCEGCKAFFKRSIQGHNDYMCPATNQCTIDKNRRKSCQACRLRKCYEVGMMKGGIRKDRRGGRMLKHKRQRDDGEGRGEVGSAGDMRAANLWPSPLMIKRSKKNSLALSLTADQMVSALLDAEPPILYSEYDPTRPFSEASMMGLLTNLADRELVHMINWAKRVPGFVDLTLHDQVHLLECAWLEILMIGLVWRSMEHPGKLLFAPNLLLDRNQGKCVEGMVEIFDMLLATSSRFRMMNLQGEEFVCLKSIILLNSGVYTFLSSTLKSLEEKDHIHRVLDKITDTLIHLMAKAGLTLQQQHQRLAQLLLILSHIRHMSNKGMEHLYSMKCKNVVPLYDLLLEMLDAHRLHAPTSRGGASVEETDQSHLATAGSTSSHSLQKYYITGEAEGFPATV
Assay: Degradation of ERα in T-47D cells (immunoblotting, 4 h)
Format: cell-based
Set-up: host or cells: T-47D
Test settings: 10nM compound
Quick reminder: number only, in %, skip the unit.

Compound	Readout value
O=C1CCC(N2Cc3cc4c(cc3C2=O)OCC2(CCN(C3CC5(CCN(c6ccc([C@@H]7c8ccc(O)cc8CC[C@@H]7c7ccccc7)cc6)CC5)C3)CC2)O4)C(=O)N1 (some centres unmarked) [M11]	56
C[C@@H]1Cc2c(ccc3[nH]ncc23)[C@@H](c2c(F)cc(N3CCC4(CCN(C(=O)CN5CCC6(CC5)COc5c6ccc6c5CN(C5CCC(=O)NC5=O)C6=O)CC4)CC3)cc2F)N1CC(F)F (some centres unmarked) [C13]	70
O=C1CCC(N2Cc3cc4c(cc3C2=O)CCC2(CN(C3CC5(CCN(c6ccc([C@@H]7c8ccc(O)cc8CC[C@@H]7c7ccccc7)cc6)CC5)C3)C2)O4)C(=O)N1 (some centres unmarked) [M13]	27
O=C1CCC(N2C(=O)c3cc4c(cc3C2=O)OCC2(CCN(CC3CCC5(CC3)CCN(c3ccc([C@@H]6c7ccc(O)cc7CC[C@@H]6c6ccccc6)cc3)CC5)CC2)C4)C(=O)N1 (some centres unmarked) [A42]	30

Request: Return Degradation rate (%) of ERα in T-47D cells (reported value) for this compound: CC1Cc2c(ccc3[nH]ncc23)C(c2c(F)cc(N3CCC4(CC3)CC(N3CCC(N5CCC6(CC5)COc5c6ccc6c5CN(C5CCC(=O)NC5=O)C6=O)C(F)C3)C4)cc2F)N1CC(F)F (centres unmarked) [G22]
Result: 63

These measurements were taken from patent EP4656642A1.
